Biological target: PD-1 (UniProt Q15116 25-167, limits assumed)
Sequence (Q15116 25-167 limits assumed): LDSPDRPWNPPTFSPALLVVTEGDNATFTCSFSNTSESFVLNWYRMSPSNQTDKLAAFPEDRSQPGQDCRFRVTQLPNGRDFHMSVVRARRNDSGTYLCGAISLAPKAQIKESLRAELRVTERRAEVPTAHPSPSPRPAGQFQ
Test: ELISA; S9 on the Cys
PROPERTY NAME: binding activity, % of wild type (%)
Number only, in %; omit the unit.

Task: Given the binder anti-PD-1 antibody 2 HC Thr91Cys (antibody, human IgG4 S228P, kappa, V domains shown, arm on Cys91 as named in each row) VH: QVQLVESGGGVVQPGRSLRLDCKASGITFSNSGMHWVRQAPGKGLEWVAVIWYDGSKRYYADSVKGRFTISRDNSKNTLFLQMNSLRAEDCAVYYCATNDDYWGQGTLVTVSS VL: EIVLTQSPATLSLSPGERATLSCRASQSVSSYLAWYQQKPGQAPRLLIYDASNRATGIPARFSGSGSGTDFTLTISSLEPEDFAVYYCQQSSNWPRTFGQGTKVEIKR , what is its reported binding activity, % of wild type?
Output: 48.9

Task: Given the binder anti-PD-1 antibody 2 HC Thr78Cys (antibody, human IgG4 S228P, kappa, V domains shown, arm on Cys78 as named in each row) VH: QVQLVESGGGVVQPGRSLRLDCKASGITFSNSGMHWVRQAPGKGLEWVAVIWYDGSKRYYADSVKGRFTISRDNSKNCLFLQMNSLRAEDTAVYYCATNDDYWGQGTLVTVSS VL: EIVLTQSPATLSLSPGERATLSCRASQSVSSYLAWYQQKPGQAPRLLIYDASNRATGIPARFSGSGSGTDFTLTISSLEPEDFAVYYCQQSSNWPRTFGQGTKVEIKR , what is its reported binding activity, % of wild type?
Output: 86.3

Task: Given the binder anti-PD-1 antibody 2 HC Gly8Cys (antibody, human IgG4 S228P, kappa, V domains shown, arm on Cys8 as named in each row) VH: QVQLVESCGGVVQPGRSLRLDCKASGITFSNSGMHWVRQAPGKGLEWVAVIWYDGSKRYYADSVKGRFTISRDNSKNTLFLQMNSLRAEDTAVYYCATNDDYWGQGTLVTVSS VL: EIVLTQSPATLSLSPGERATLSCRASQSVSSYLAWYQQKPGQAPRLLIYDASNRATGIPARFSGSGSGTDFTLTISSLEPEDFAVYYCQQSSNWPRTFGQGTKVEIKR , what is its reported binding activity, % of wild type?
Output: 78.3
